test system: HaCat; assay: Cytotoxic Profiling of Annotated Libraries Using Quantitative High-Throughput Screening (AID 1296008); conditions: Five cell lines viability, CellTiter-Glo ATP luminescence, 48-72 h; stronger effect = lower value; note: % is set by controls: 0 for no effect and ±100 for the full control effect; nearly all actives have a fitted effect of over 60% in size
Inconclusive results are not listed.
Entries and their max response values follow.
The response must be a number in % with no trailing unit.

Answered cases to consult:
CC(C)CCCC(C)N (stereo not drawn)    -0.769
CCC1Nc2cc(Cl)c(S(N)(=O)=O)cc2S(=O)(=O)N1 (stereo not drawn)    3.1
O=C(Nc1cccc(C2=NCCN2)c1)Nc1cccc(C2=NCCN2)c1    -0.992
CCCCCCCCCCCCCCCCO    -1.51
CCOc1ccc(NC(C)=O)cc1    -1.35

Given item CC1=C(C(=O)O)N2C(=O)[C@@H](NC(=O)[C@H](N)c3ccccc3)[C@H]2SC1 , the value recorded as its max response is 2.08

Given item c1ccc(CC2=NCCN2)cc1 , the value recorded as its max response is -10.1

Given item CC(C)(C)NC[C@H](O)COc1cccc2c1CCCC2=O , the value recorded as its max response is -26.5

Given item C[N+]1(CC2COC(c3ccccc3)(C3CCCCC3)O2)CCCCC1 (stereo not drawn) , the value recorded as its max response is 3.15

Given item O=C(O)C1(C(=O)O)CCC1.[NH2-].[NH2-].[Pt+2] , the value recorded as its max response is 1.48

* * *

tested on: MKL-2; assay: qHTS assay to identify novel small-molecules to repurpose for Merkel cell carcinoma treatment (AID 1296009); conditions: MCC and control cell lines, CellTiter-Glo viability, 72 h; series mostly up to 46 µM; note: nearly all actives have a fitted effect of over 60% in size
Inconclusive results are not listed. Activity calls are given as the source filed them. The call rests on the fitted dose curve; in most records, active means well fitted inhibition curve with a large enough effect; inconclusive means small, poorly fitted or top-dose-only effect; inactive means flat fitted curve, though single readings scatter.
A correct response names exactly one class from active, inactive

Worked cases, answers included:
CCCCCCCCCCCCCC[N+](C)(C)Cc1ccccc1    active
O=C(O)C(Cc1cc(I)c(O)c(I)c1)c1ccccc1 (stereo not given)    inactive
CN(C)C(=O)Nc1ccc(Cl)c(Cl)c1    inactive
CN1CCN(C2=Nc3cc(F)ccc3Cc3ccccc32)CC1    inactive
C=C[C@H]1CN2CC[C@H]1C[C@@H]2[C@@H](O)c1ccnc2ccc(OC)cc12    inactive

Which outcome was entered for the molecule NC1CCN(c2nc3c(cc2F)c(=O)c(C(=O)O)cn3-c2ccc(F)cc2F)C1 (stereo not given) in this test?
inactive

Which outcome was entered for the molecule CC(=O)NCCCCCC(=O)O in this test?
inactive

Which outcome was entered for the molecule CCOc1cc(OCC)c(C(=O)CCC(=O)O)cc1OCC in this test?
inactive

Which outcome was entered for the molecule CCOC(=O)C(C#N)=C(c1ccccc1)c1ccccc1 in this test?
inactive

* * *

molecular target: Cytochrome P450 2D6 (Homo sapiens); test: Cytochrome P450 family 2 subfamily D member 6 (CYP2D6) small molecule antagonists: luciferase biochemical (cell-free) qHTS assay (AID 1645840); details: P450-Glo CYP2D6 enzyme, luciferin luminescence, 1 h; series mostly up to 57.4 µM; note: nearly all actives have a fitted effect of over 55% in size; note: potency is the fitted concentration of half-maximal effect
Records with an inconclusive call do not appear. Calls of active or inactive are those of the source. The call rests on the fitted dose curve; in most records, active means well fitted inhibition curve with a large enough effect in the repeat runs; inconclusive means weak or mixed curves; inactive means flat fitted curve, though single readings scatter.
Assay metric: Potency

Answered cases to consult:
Cc1cc(C)cc(OCC2CNC(=O)O2)c1 (stereo unspecified)    inactive
CCOc1ccccc1OCCN[C@H](C)Cc1ccc(OC)c(S(N)(=O)=O)c1    15.5 µM (active)
Oc1c(Cl)cc(Cl)c(Cl)c1Cc1c(O)c(Cl)cc(Cl)c1Cl    13.8 µM (active)
O=C1C(=O)c2ccccc2C(O)=C1C1CCC(c2ccc(Cl)cc2)CC1 (stereo unspecified)    inactive
CCCCOC(=O)CC(CC(=O)OCCCC)(OC(C)=O)C(=O)OCCCC    inactive

Given item CC(=O)Nc1ccc(OC(=O)c2ccccc2OC(C)=O)cc1 , the value recorded as its Potency is 15.5 µM (active)

Origin of values: PubChem BioAssay (NCATS)
